Source: patent US6933308B2

- System: KCNQ channels
- METHOD_NOTES: Thallium flux assay for KCNQ channel openers
- Type: cell-based
- PROTOCOL_CONDITIONS: thallium flux, 10 point concentration series; HEK-293 cells stably transfected with a KCNQ family member
Quick reference: EC50 of the listed items.
ASSAY_METRIC: EC50

>  <COMPOUND>
COCCN(CCOC)CCc1nc(C(F)(F)F)c(C(=O)N[C@@H](C)c2cccc(-c3cccnc3)c2)s1 [Example 40]

>  <ASSAY_TARGET>
KCNQ channels

>  <ASSAY_METRIC>
EC50

>  <OBSERVED_MEASUREMENT>
50 to 1000 nM

$$$$
>  <COMPOUND>
CCC(CC)NCCc1nc(C(F)(F)F)c(C(=O)NC(C)c2cccc(OC(F)(F)F)c2)s1 (stereo not shown) [Example 33]

>  <ASSAY_TARGET>
KCNQ channels

>  <ASSAY_METRIC>
EC50

>  <OBSERVED_MEASUREMENT>
1000 to 20000 nM

$$$$
>  <COMPOUND>
CC(NC(=O)c1sc(CCN(C)Cc2ccncc2)nc1C(F)(F)F)c1cccc(C(F)(F)F)c1 (stereo not shown) [Example 17]

>  <ASSAY_TARGET>
KCNQ channels

>  <ASSAY_METRIC>
EC50

>  <OBSERVED_MEASUREMENT>
1000 to 20000 nM

$$$$
>  <COMPOUND>
CC(NC(=O)c1sc(CCN(C)Cc2ccco2)nc1C(F)(F)F)c1cccc(OC(F)(F)F)c1 (stereo not shown) [Example 14]

>  <ASSAY_TARGET>
KCNQ channels

>  <ASSAY_METRIC>
EC50

>  <OBSERVED_MEASUREMENT>
< 50 nM

$$$$
>  <COMPOUND>
COCCN(CCOC)CCc1nc(C(F)(F)F)c(C(=O)NC(C)c2cccc(OC(F)(F)F)c2)s1 (stereo not shown) [Example 38]

>  <ASSAY_TARGET>
KCNQ channels

>  <ASSAY_METRIC>
EC50

>  <OBSERVED_MEASUREMENT>
1000 to 20000 nM

$$$$
>  <COMPOUND>
C[C@H](NC(=O)c1sc(CCN(C)Cc2ccco2)nc1C(F)(F)F)c1cccc(N2CCOCC2)c1 [Example 11]

>  <ASSAY_TARGET>
KCNQ channels

>  <ASSAY_METRIC>
EC50

>  <OBSERVED_MEASUREMENT>
1000 to 20000 nM

$$$$
>  <COMPOUND>
CC(NC(=O)c1sc(C(O)CN2CCCCC2)nc1C(F)(F)F)c1cccc(OC(F)(F)F)c1 (stereo not shown) [Example 41]

>  <ASSAY_TARGET>
KCNQ channels

>  <ASSAY_METRIC>
EC50

>  <OBSERVED_MEASUREMENT>
1000 to 20000 nM

$$$$
>  <COMPOUND>
C[C@H](NC(=O)c1sc(CCNC2CCCC2)nc1C(F)(F)F)c1cccc(-c2cccnc2)c1 [Example 37]

>  <ASSAY_TARGET>
KCNQ channels

>  <ASSAY_METRIC>
EC50

>  <OBSERVED_MEASUREMENT>
1000 to 20000 nM

$$$$
>  <COMPOUND>
CCN(CC)CCc1nc(C(F)(F)F)c(C(=O)N[C@@H](C)c2cccc(-c3cccnc3)c2)s1 [Example 31]

>  <ASSAY_TARGET>
KCNQ channels

>  <ASSAY_METRIC>
EC50

>  <OBSERVED_MEASUREMENT>
1000 to 20000 nM

$$$$
>  <COMPOUND>
C[C@H](NC(=O)c1sc(CCN2CCCCC2)nc1C(F)(F)F)c1cccc(N2CCOCC2)c1 [Example 25]

>  <ASSAY_TARGET>
KCNQ channels

>  <ASSAY_METRIC>
EC50

>  <OBSERVED_MEASUREMENT>
1000 to 20000 nM

$$$$
>  <COMPOUND>
CC(NC(=O)c1sc(CCN(C)Cc2ccco2)nc1C(F)(F)F)c1cccc(-c2cccnc2)c1 (stereo not shown) [Example 12]

>  <ASSAY_TARGET>
KCNQ channels

>  <ASSAY_METRIC>
EC50

>  <OBSERVED_MEASUREMENT>
< 50 nM

$$$$
>  <COMPOUND>
CCCN(CCc1nc(C(F)(F)F)c(C(=O)NC(C)c2cccc(N(C)C)c2)s1)CC1CC1 (stereo not shown) [Example 29]

>  <ASSAY_TARGET>
KCNQ channels

>  <ASSAY_METRIC>
EC50

>  <OBSERVED_MEASUREMENT>
1000 to 20000 nM

$$$$
>  <COMPOUND>
CC(NC(=O)c1sc(CCN2CCSCC2)nc1C(F)(F)F)c1cccc(C(F)(F)F)c1 (stereo not shown) [Example 18]

>  <ASSAY_TARGET>
KCNQ channels

>  <ASSAY_METRIC>
EC50

>  <OBSERVED_MEASUREMENT>
50 to 1000 nM

$$$$
>  <COMPOUND>
CC(NC(=O)c1sc(CCN2CCCC2)nc1C(F)(F)F)c1cccc(OC(F)(F)F)c1 (stereo not shown) [Example 13]

>  <ASSAY_TARGET>
KCNQ channels

>  <ASSAY_METRIC>
EC50

>  <OBSERVED_MEASUREMENT>
1000 to 20000 nM

$$$$
>  <COMPOUND>
CCN(CC)CCc1nc(C(F)(F)F)c(C(=O)NC(C)c2cccc(N(C)C)c2)s1 (stereo not shown) [Example 16]

>  <ASSAY_TARGET>
KCNQ channels

>  <ASSAY_METRIC>
EC50

>  <OBSERVED_MEASUREMENT>
1000 to 20000 nM

$$$$
>  <COMPOUND>
C[C@H](NC(=O)c1sc(CCN2CCCCC2)nc1C(F)(F)F)c1cccc(-c2cccnc2)c1 [Example 32]

>  <ASSAY_TARGET>
KCNQ channels

>  <ASSAY_METRIC>
EC50

>  <OBSERVED_MEASUREMENT>
1000 to 20000 nM

$$$$
